Reference source for all entries: ChEMBL document CHEMBL4725489

# TEST_SYSTEM: 5'-nucleotidase (Homo sapiens, UniProt P21589)
# Sequence (P21589 whole entry): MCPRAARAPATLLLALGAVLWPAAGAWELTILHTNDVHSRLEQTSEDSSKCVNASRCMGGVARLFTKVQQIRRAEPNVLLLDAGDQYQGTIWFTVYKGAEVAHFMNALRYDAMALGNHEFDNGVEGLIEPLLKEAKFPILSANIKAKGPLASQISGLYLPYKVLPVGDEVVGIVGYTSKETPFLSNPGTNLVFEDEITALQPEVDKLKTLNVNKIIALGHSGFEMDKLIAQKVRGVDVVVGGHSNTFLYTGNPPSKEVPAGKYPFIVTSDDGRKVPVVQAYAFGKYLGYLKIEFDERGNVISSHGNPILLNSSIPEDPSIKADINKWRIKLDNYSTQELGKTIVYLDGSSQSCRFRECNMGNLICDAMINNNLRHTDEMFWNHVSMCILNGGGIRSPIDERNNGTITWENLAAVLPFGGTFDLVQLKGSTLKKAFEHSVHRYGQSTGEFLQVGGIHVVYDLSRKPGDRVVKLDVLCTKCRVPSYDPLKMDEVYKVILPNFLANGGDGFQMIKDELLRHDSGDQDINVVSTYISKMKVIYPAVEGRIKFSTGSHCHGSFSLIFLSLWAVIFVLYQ
# ASSAY_NAME: Inhibition of recombinant human ecto-5' nucleotidase expressed in COS7 cell membranes using AMP as substrate preincubated for 10 mins followed by substrate addition and measured after 20 mins by capillary electrophoresis method
ATTRIBUTE_MEASURED: pIC50
Schema: pIC50 number; meaning minus log10 of the concentration expressed in molar units.

Sample `Cc1ccc(-n2nc(C)c3cc(Cl)c(-c4cc(C)ccc4O)nc32)cc1` — what was its pIC50?
6.49

====

# TEST_SYSTEM: 5'-nucleotidase (Homo sapiens)
# ASSAY_NAME: Inhibition of recombinant human ecto-5' nucleotidase expressed in COS7 cell membranes assessed as inorganic phosphate release using AMP as substrate at 100 uM preincubated for 10 mins followed by substrate addition and measured after 20 mins by malachite green dye based spectrophotometry relative to control
Quick list: inhibition per entry.
Response body: numeric value in %, unit text excluded.

Sample Cc1[nH]nc2c1C1(C(=O)N(C)c3ccccc31)C(C#N)=C(N)N2 (configuration not stated) — what was its inhibition?
36.6

Sample Cc1[nH]nc2c1C1(C(=O)N(C)c3ccc([N+](=O)[O-])cc31)C(C#N)=C(N)N2 (configuration not stated) — what was its inhibition?
34.3

Sample Cc1[nH]nc2c1C1(C(=O)Nc3ccccc31)C(C#N)=C(N)N2 (configuration not stated) — what was its inhibition?
33

Sample CN1C(=O)C2(C(C#N)=C(N)Nc3n[nH]cc32)c2cc(Cl)ccc21 (configuration not stated) — what was its inhibition?
39.7

Sample CN1C(=O)C2(C(C#N)=C(N)Nc3n[nH]cc32)c2cc([N+](=O)[O-])ccc21 (configuration not stated) — what was its inhibition?
38

Sample N#CC1=C(N)Nc2n[nH]cc2C12C(=O)Nc1ccccc12 (configuration not stated) — what was its inhibition?
27.6

Sample Cc1[nH]nc2c1C1(C(=O)N(C)c3ccc(Cl)cc31)C(C#N)=C(N)N2 (configuration not stated) — what was its inhibition?
33
